Exercise: for every item that follows, state its recorded MIC S. pneumo. 1175.
# System: Streptococcus pneumoniae 1175
# Type: cell-based
# testConditions: Streptococcus pneumoniae 1175; microtiter broth dilution
Dear colleague, please return just the value in µg/mL, with no unit written.

Challenge: MIC S. pneumo. 1175 for CCC1OC(=O)C(C)C(=O)C(C)C(OC2OC(C)CC(N(C)C)C2O)C(C)(OC)CC(C)C(=O)C(C)C2N(CC3CN(Cc4cnc5cnccn45)C3)C(=O)OC12C (centres unmarked) ?
Response given: 1

Challenge: MIC S. pneumo. 1175 for CCC1OC(=O)C(C)C(=O)C(C)C(OC2OC(C)CC(N(C)C)C2O)C(C)(OC)CC(C)C(=O)C(C)C2N(C3CN(Cc4c[nH]nc4-c4ccc(F)cc4)C3)C(=O)OC12C (centres unmarked) ?
Response given: 0.25
